# Test system: T47D
# Assay Method Text: Growth inhibition of human T47D cells after 6 days by MTT assay
# Format: functional, cell-based
# Recorded Conditions: 144 h
Quick reference for IC50 among some compounds
Your answer is read as nM, so omit the unit and give the number.

Some solved entries appear below for comparison.
# Compound, Assayed System, IC50 [nM]
records = [
    ("CC1=C(/C=C/C(C)=C/C=C/C(C)=C/C(=O)n2ccnc2)C(C)(C)CCC1n1ccnc1 (racemic)", "T47D", 9),
    ("CC1=C(/C=C/C(C)=C/C=C/C(C)=C/C(=O)Nc2ccc(O)cc2)C(C)(C)CCC1n1ccnc1 (racemic)", "T47D", 570),
    ("CC1=C(/C=C/C(C)=C/C=C/C(C)=C/C(=O)O)C(C)(C)CCC1", "T47D", 6),
]

Next compound, IC50 to be filled in.
# input Sample CC1=C(/C=C/C(C)=C/C=C/C(C)=C/C(=O)O)C(C)(C)CCC1n1ccnc1 (racemic) — what was its IC50?
# output 3

Data origin: ChEMBL document CHEMBL1149300
